Test system: PC-3
assay notes: Antiproliferative activity against human PC3 cells at 0.3 uM by SRB assay
Format: functional
Dear colleague, classification is by growth, % of control at 0.3 µM, with ranges listed here: low value (below 80%), medium value (80% to below 90%), high value (90% or more)

Use the examples below as a reference point.
INSERT INTO results (chemical_string, label_value) VALUES
  ('CCCCCCCCCCCCCCCC(=O)NCC(C)(C)C[N+](C)(C)CC', 'high value'),
  ('CCCCCCCCCCCCCCCCCC(=O)NCC(C)(C)C[N+](C)(C)Cc1ccccc1', 'high value'),
  ('CCCCCCCCCCCCCC(=O)N(C)CC[N+](C)(C)C', 'high value'),
  ('CCCCCCCCCCCCCCCC(=O)N(C)CC[N+](C)(C)CC', 'medium value'),
  ('CCCCCCCCCCCCCCCCCC(=O)NCC(C)(C)C[N+](C)(C)C', 'low value'),
  ('CCCCCCCCCCCCCC(=O)N(C)CC[N+](CC)(CC)CC', 'medium value');

Prompt: Using the reported growth, % of control at 0.3 µM, which band applies to CCCCCCCCCCCCCC(=O)NCCC[N+](C)(C)C ?
Response: medium value

Prompt: Using the reported growth, % of control at 0.3 µM, which band applies to CCCCCCCCCCCCCC(=O)NCC(C)(C)C[N+](C)(C)C ?
Response: high value

Prompt: Using the reported growth, % of control at 0.3 µM, which band applies to CCCCCCCCCCCCCCCC(=O)N(C)CCC[N+](C)(C)C ?
Response: high value

Prompt: Using the reported growth, % of control at 0.3 µM, which band applies to CCCCCCCCCCCCCCCC(=O)N(C)CC[N+](CC)(CC)CC ?
Response: low value

Prompt: Using the reported growth, % of control at 0.3 µM, which band applies to CCCCCCCCCCCCCCCCCC(=O)NCCC[N+](C)(C)C ?
Response: high value

Prompt: Using the reported growth, % of control at 0.3 µM, which band applies to CCCCCCCCCCCCCCCC(=O)N(C)CCC[N+](C)(C)Cc1ccccc1 ?
Response: high value

Taken from ChEMBL document CHEMBL2380247.
